Source: PubChem BioAssay AID463173

system: DeltatarO mutant; test: S. aureus survival, RN4220 and DeltatarO strains – OD600, teichoic acid synthesis inhibitors, primary screen (AID 463173); details: S. aureus RN4220 wild type/DeltatarO growth, OD600, 18 h, hits give low values, screened at 18.75 µg/mL (by protocol)
The whole screen tested about 52,000 compounds, of which about 4,300 (8.3%) were called active. Shown is part of a subset that was picked to be rich in actives.

COMPOUND | survival (%)
O=C(c1cc2ccccc2oc1=O)N(Cc1cccs1)Cc1cccs1 | 48
COc1ccc2oc(=O)c(C(=O)NCc3ccco3)cc2c1 | 100
O=C(NCC1CCCO1)c1cc2ccccc2oc1=O (stereo unspecified) | 80
COc1ccc(C(=O)/C=C\Nc2ccc(S(=O)(=O)N=C(N)N)cc2)cc1OC | 76
O=C(c1cc2ccccc2oc1=O)N(Cc1ccc2c(c1)OCO2)CC1CCCO1 (stereo unspecified) | 42
Cc1cc2c(cc1S(=O)(=O)NCc1ccc(N(C)C)cc1)OCC(=O)N2 | 80

====

test system: DeltatarO mutant; experiment: S. aureus survival, RN4220 and DeltatarO strains – OD600, teichoic acid synthesis inhibitors, primary screen (AID 463173); settings: S. aureus RN4220 wild type/DeltatarO growth, OD600, 18 h, hits give low values, screened at 18.75 µg/mL (by protocol)
The campaign covered roughly 52,000 compounds. About 4,300 (8.3%) were called active. This excerpt belongs to a sample that is enriched for actives.
MEASURED PROPERTY: survival

MOLECULE | MEASURED PROPERTY | TEST RESULT
Cc1ccc(N2CCN(C(=O)NCc3noc4ccccc34)CC2C)cc1 (stereo unspecified) | survival | 30% (active)
CCCOc1ccc(CNC(=O)c2cc3oc4ccccc4c3n2C)cc1 | survival | 73% (inactive)
Cn1c(=O)c2c(-c3ccc(Br)cc3)n(Cc3ccc(F)cc3)cc2n(C)c1=O | survival | 49% (active)
Cn1c(=O)c2c(-c3ccccc3Br)n(Cc3ccccc3)cc2n(C)c1=O | survival | 88% (inactive)
Cn1c(=O)c2c(-c3ccccc3Br)n(CCc3ccccc3)cc2n(C)c1=O | survival | 45% (active)
COc1ccc(CNC(=O)c2cc3oc4ccccc4c3n2C)cc1OC | survival | 43% (active)
Cn1c(=O)c2c(-c3ccc(Cl)cc3)n(Cc3ccc(Cl)cc3)cc2n(C)c1=O | survival | 56% (inactive)
Cn1c(C(=O)NCc2cccc(Cl)c2)cc2oc3ccccc3c21 | survival | 85% (inactive)
Cc1ccc(C)c(N2CCN(C(=O)NCc3noc4ccccc34)CC2)c1 | survival | 51% (inactive)
CCn1c(C(=O)NCc2cc(Br)ccc2OC)cc2oc3ccccc3c21 | survival | 67% (inactive)
CCn1c(C(=O)NCc2ccccc2Br)cc2oc3ccccc3c21 | survival | 48% (inactive)

====

In this section we review reported survival values for a set of compounds.
test system: DeltatarO mutant; assay: S. aureus survival, RN4220 and DeltatarO strains – OD600, teichoic acid synthesis inhibitors, primary screen (AID 463173); details: S. aureus RN4220 wild type/DeltatarO growth, OD600, 18 h, hits give low values, screened at 18.75 µg/mL (by protocol)
Hit rate of the full screen: of about 52,000 compounds, about 4,300 (8.3%) were called active. The entries come from a sample that favours actives as a whole.

COMPOUND | survival / %
Cc1ccccc1OCC(=O)Nc1nnc(S(=O)(=O)N2CCCC2)s1 | 42
O=C(NCc1ccco1)c1ccc2c(c1)N(Cc1cccc(Cl)c1)C(=O)c1ccccc1S2=O (stereo unspecified) | 63
COc1ccc(C(=O)Nc2cccc(OCc3cc(=O)n4c5c(sc4n3)CCCC5)c2)cc1OC | 53
Cc1ccc(O)c(C(CC(=O)NCC2(c3ccccc3)CCCC2)c2ccccc2)c1 (stereo unspecified) | 82
CCOC(=O)c1c(NC(=O)/C=C/c2ccc(C)cc2)sc2c1CCCC2 | 22
CCOc1ccccc1CNC(=O)C1CCN(c2nc3ccccc3nc2C(F)(F)F)CC1 | 69
CCOC(=O)c1cc(OC(=O)c2cc(OC)c(OC)c(OC)c2)n(-c2ccccc2)n1 | 54
Cc1cccc(CCNC(=O)c2nn(C)c3c2CSc2ccccc2-3)c1 | 77
Nc1nc(N)nc(COc2ccccc2)n1 | 102
C1CCC(N2CCC(N3CCCCC3)CC2)CC1 | 91
Cc1cccc(NC(=O)COc2ccc3oc4c(c3c2)CCCC4)c1 | 40
COc1cccc(-n2c(=O)c3c(C)c(C)sc3n(CC(=O)NCc3ccccc3)c2=O)c1 | 102
Cc1ccc2c(c1)-c1c(c(C(=O)NCCc3ccccc3)nn1C)CS2 | 37
CCc1ccc(C(=O)COC(=O)C(NC(=O)C2CCC(C)CC2)C(C)C)cc1 (stereo unspecified) | 72
CCOC(=O)c1c(NC(=O)/C=C/c2ccc(OCC)cc2)sc2c1CCCC2 | 36
COc1cccc(CN(Cc2ccco2)c2cnc(S(C)(=O)=O)nc2C(=O)Nc2cccc(Cl)c2C)c1 | 47
CC(C)(C)Sc1ccc(SC#N)s1 | 1
CC1=C(C(=O)Nc2ccc(C)cc2C)C(c2cc(Br)ccc2F)n2ncc(C(=O)Nc3ccc(C)cc3)c2N1 (stereo unspecified) | 89
Cc1ccccc1OCC(=O)Nc1nnc(S(=O)(=O)N2CCCCCC2)s1 | 73
Cc1cccc(C)c1-n1ncc(C(=O)Nc2ccc3c(c2)OCO3)c1C1CCN(C(=O)OC(C)(C)C)CC1 | 100
CC(C)c1cc(-c2nc(-c3ccc(Br)cc3)no2)n[nH]1 | 95
O=C(c1ccc2c(c1)CCN2S(=O)(=O)c1ccc(Cl)cc1)N1CCN(c2ccccc2)CC1 | 58
Cc1cc(C)cc(Nc2cc(C(=O)NCc3ccccc3)c3ccccc3n2)c1 | 113
CCOC(=O)c1cc(OC(=O)c2ccc(OC)c(OC)c2)n(-c2ccccc2)n1 | 67
Cc1cc(C)cc(Nc2cc(C(=O)NCCCN(Cc3ccccc3)C(C)C)c3ccccc3n2)c1 | -4
CCOC(=O)c1cc(OC(=O)c2ccc(Cl)cc2)n(-c2ccccc2)n1 | 85
CCOC(=O)c1cc(OC(=O)c2ccc(C)cc2)n(-c2ccccc2)n1 | 137
CCOC(=O)c1c(NC(=O)/C=C/c2ccc(C(C)C)cc2)sc2c1CCC2 | 56
COc1ccc2c(CNCCc3ccco3)c(C(=O)O)n(Cc3ccccc3)c2c1 | 101
COc1ccccc1CN(Cc1ccco1)c1cnc(S(C)(=O)=O)nc1C(=O)Nc1cc(C)ccc1C | 58
CCOC(=O)c1cc(OC(=O)c2ccccc2OC)n(-c2ccccc2)n1 | 54
Cc1ccc2occ(CC(=O)N(Cc3ccc(N(C)C)cc3)C3CCS(=O)(=O)C3)c2c1 (stereo unspecified) | 74
CCn1nc(C)c2c(-c3ccccc3)cc(=O)n(C(C)C(=O)NCCc3ccc(OC)c(OC)c3)c21 (stereo unspecified) | 92
O=C(NC1CCCC1)C1CCCN(S(=O)(=O)c2ccc(-n3cnnn3)cc2)C1 (stereo unspecified) | 72
CCOC(=O)c1cc(OC(=O)c2cccc(C)c2)n(-c2ccccc2)n1 | 59
CCOc1ccc(CNS(=O)(=O)c2ccc3c(c2)CCCN3C(C)=O)cc1 | 93
O=C1CC(c2nnc(Cc3ccc(F)cc3Cl)o2)CN1c1ccccc1 (stereo unspecified) | 133
O=C(COc1ccccc1F)Nc1nnc(S(=O)(=O)N2CCCCCC2)s1 | 51
Cc1cccc(C(CC(=O)NCC2(c3ccccc3)CCCC2)c2ccccc2)c1O (stereo unspecified) | 38
O=C(COc1ccc2oc3c(c2c1)CCCC3)Nc1ccc(Cl)cc1 | 85
COc1ccc(Cl)cc1NC(=O)c1nc(S(C)(=O)=O)ncc1N(Cc1ccc(C)cc1)Cc1ccco1 | 103

====

test system: DeltatarO mutant; test: S. aureus survival, RN4220 and DeltatarO strains – OD600, teichoic acid synthesis inhibitors, primary screen (AID 463173); settings: S. aureus RN4220 wild type/DeltatarO growth, OD600, 18 h, hits give low values, screened at 18.75 µg/mL (by protocol)
Hit rate of the full screen: of about 52,000 compounds, about 4,300 (8.3%) were called active. The full list was thinned out, with actives kept by preference.
The molecules listed here are annotated with their survival.
MEASURED PROPERTY: survival (%)

MOLECULE | TEST RESULT
Cc1ccc(NS(=O)(=O)c2ccc3c(c2)n(C)c(=O)n3C)cc1C | 67
O=C(C1COc2ccccc2O1)N(Cc1cccnc1)c1nc2c(F)cccc2s1 (stereo not given) | 84
CCC(=O)NC1CCC(c2ccccc2)CC1 (stereo not given) | 97
CC(=O)N1CCc2c(sc3c2c(=O)n(-c2ccccc2Cl)c(=O)n3Cc2cccc(C)c2)C1 | 74
O=C(Oc1ccccc1)c1ccc(F)cc1 | 74
Cc1ccc(N2CCN(c3c(CN4CCCC4)c(=O)oc4ccccc34)CC2)c(C)c1 | 67
CC1CCCN(Cc2c(O)ccc3c(=O)c(-c4ccccc4Cl)c(C(F)(F)F)oc23)C1 (stereo not given) | 43
Cc1ccc(-c2nnc(Nc3ccc(O)cc3)c3ccccc23)cc1S(=O)(=O)N1CCOCC1 | 65
CCn1c(=O)n(CC2CCC(C(=O)NC(C)C)CC2)c(=O)c2sccc21 (stereo not given) | 85
CC1CCCN(Cc2c(O)ccc3c(=O)c(-c4ccc(Cl)cc4)c(C(F)(F)F)oc23)C1 (stereo not given) | 46
